Provide the recorded self-cleavage kobs at 2500 uM GlcN6P for the entries that follow.
B1: glmS ribozyme (parent)
chain: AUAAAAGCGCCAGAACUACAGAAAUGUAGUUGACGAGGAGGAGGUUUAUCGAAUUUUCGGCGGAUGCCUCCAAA

# Variants of: B1
# experiment-summary: self-cleavage kobs at 2500 uM GlcN6P; higher = faster cleavage; RNA array
# experimental-conditions: with glucosamine-6-phosphate
Fewer inactive variants are shown than the library holds.

Record summary for G13U G35C A64U : reported self-cleavage kobs at 2500 uM GlcN6P = < 1e-05 s⁻¹

Lab note: G37A G66U gave self-cleavage kobs at 2500 uM GlcN6P of 0.000217 s⁻¹

Sure, the documented self-cleavage kobs at 2500 uM GlcN6P for G35C A48U is < 1e-05 s⁻¹

The variant identified as A12U U30G U49C registered its self-cleavage kobs at 2500 uM GlcN6P at < 1e-05 s⁻¹

Lab book: self-cleavage kobs at 2500 uM GlcN6P of U30G G66C noted as 9.1e-05 s⁻¹

Record G9U G43A G66U , field self-cleavage kobs at 2500 uM GlcN6P: < 1e-05 s⁻¹

response.value for G32U A52U (field: self-cleavage kobs at 2500 uM GlcN6P) = < 1e-05 s⁻¹

Note to self: self-cleavage kobs at 2500 uM GlcN6P recorded for C8U A15U U30G G35C G41U was < 1e-05 s⁻¹

G7A C16U U47C C58G has a reported self-cleavage kobs at 2500 uM GlcN6P of < 1e-05 s⁻¹

Measured self-cleavage kobs at 2500 uM GlcN6P, G7A G51U U54G G63A : < 1e-05 s⁻¹

Reported self-cleavage kobs at 2500 uM GlcN6P ( C10U A48C C58U ) = < 1e-05 s⁻¹

The variant identified as G7U G43A U47G U56G registered its self-cleavage kobs at 2500 uM GlcN6P at < 1e-05 s⁻¹

Measured self-cleavage kobs at 2500 uM GlcN6P, G13C C71U : 9.01e-05 s⁻¹

Query A6G G32U C61A yields self-cleavage kobs at 2500 uM GlcN6P of < 1e-05 s⁻¹
